B1: 5KPH (parent)
chain: EEKRQVKQVAKEKLLEQSPNSKVQVRRVQKQGNTIRVELELRTNGKKENYTVEVERQGNTWTVKRITRT

variants of: B1; experiment: folding stability dG (cDNA display proteolysis); higher = more stable; settings: PBS, room temperature
TEST READOUT: folding stability dG (kcal/mol)
Give the value in kcal/mol but do not write kcal/mol after it.

Form field: reported folding stability dG of Q31T
4.12

Form field: reported folding stability dG of V25T
2.85

Form field: reported folding stability dG of T51A
3.6

Form field: reported folding stability dG of G45N
3.55

Form field: reported folding stability dG of P19H
2.92

Form field: reported folding stability dG of R68D
2.65

Form field: reported folding stability dG of K47R
4.02

Form field: reported folding stability dG of Q8K
4.16

Form field: reported folding stability dG of T51Y
3.75

Form field: reported folding stability dG of N59Q
3.77

Form field: reported folding stability dG of R56G
3.19

Form field: reported folding stability dG of V6Y
3.13

Form field: reported folding stability dG of K13L
3.42

Form field: reported folding stability dG of V23I
3.9

Form field: reported folding stability dG of V6W
3.61

Form field: reported folding stability dG of R4V
3.34

Form field: reported folding stability dG of V28P
1.34

Form field: reported folding stability dG of G45I
2.91

Form field: reported folding stability dG of K11N
2.38

Form field: reported folding stability dG of R36E
3.54

Form field: reported folding stability dG of L14I
3.75

Form field: reported folding stability dG of E12D
4.17

Form field: reported folding stability dG of V23A
3.6

Form field: reported folding stability dG of E1F
3
